B1: DLC1 (parent)
chain: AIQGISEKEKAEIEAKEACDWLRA

Variants of: B1
assay_protocol: protein stability index of a GFP-peptide fusion (GPS, HEK-293T) (PSI 1-6); higher = more stable;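 note: lentivirally expressed fusions sorted by FACS into six bins by GFP to DsRed ratio, PSI derived from sequencing read proportions per bin multiplied by bin number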
condition_info: c terminus: a fixed tail appended
readout: protein stability index
The response must contain the number and no unit.

### Prompt So what's the measured protein stability index for this one? AIDGISEKEKAEIEAKEACDWLRA
### Response 5.2

### Prompt So what's the measured protein stability index for this one? AIQGISEKEWAEIEAKEACDWLRA
### Response 3.73

### Prompt So what's the measured protein stability index for this one? AIQGISEKEAAEIEAKEACDWLRA
### Response 4.67

### Prompt So what's the measured protein stability index for this one? AIQGISEKEKCEIEAKEACDWLRA
### Response 4.32

### Prompt So what's the measured protein stability index for this one? AIQGISEKEYAEIEAKEACDWLRA
### Response 4.11

### Prompt So what's the measured protein stability index for this one? AIQGISEKEKAIIEAKEACDWLRA
### Response 4.02

### Prompt So what's the measured protein stability index for this one? AIQGISECEKAEIEAKEACDWLRA
### Response 4

### Prompt So what's the measured protein stability index for this one? ADQGISEKEKAEIEAKEACDWLRA
### Response 4.99

### Prompt So what's the measured protein stability index for this one? AFQGISEKEKAEIEAKEACDWLRA
### Response 4.81

### Prompt So what's the measured protein stability index for this one? AILGISEKEKAEIEAKEACDWLRA
### Response 3.54

### Prompt So what's the measured protein stability index for this one? AIQGHSEKEKAEIEAKEACDWLRA
### Response 4.94
